- experimental.target: Ba/F3 cell lines expressing HER2 exon 20 insertion mutations (Homo sapiens, UniProt P04626, cells depend on it, form not given)
- Sequence (P04626 23-1255 limits assumed, stated change not applied): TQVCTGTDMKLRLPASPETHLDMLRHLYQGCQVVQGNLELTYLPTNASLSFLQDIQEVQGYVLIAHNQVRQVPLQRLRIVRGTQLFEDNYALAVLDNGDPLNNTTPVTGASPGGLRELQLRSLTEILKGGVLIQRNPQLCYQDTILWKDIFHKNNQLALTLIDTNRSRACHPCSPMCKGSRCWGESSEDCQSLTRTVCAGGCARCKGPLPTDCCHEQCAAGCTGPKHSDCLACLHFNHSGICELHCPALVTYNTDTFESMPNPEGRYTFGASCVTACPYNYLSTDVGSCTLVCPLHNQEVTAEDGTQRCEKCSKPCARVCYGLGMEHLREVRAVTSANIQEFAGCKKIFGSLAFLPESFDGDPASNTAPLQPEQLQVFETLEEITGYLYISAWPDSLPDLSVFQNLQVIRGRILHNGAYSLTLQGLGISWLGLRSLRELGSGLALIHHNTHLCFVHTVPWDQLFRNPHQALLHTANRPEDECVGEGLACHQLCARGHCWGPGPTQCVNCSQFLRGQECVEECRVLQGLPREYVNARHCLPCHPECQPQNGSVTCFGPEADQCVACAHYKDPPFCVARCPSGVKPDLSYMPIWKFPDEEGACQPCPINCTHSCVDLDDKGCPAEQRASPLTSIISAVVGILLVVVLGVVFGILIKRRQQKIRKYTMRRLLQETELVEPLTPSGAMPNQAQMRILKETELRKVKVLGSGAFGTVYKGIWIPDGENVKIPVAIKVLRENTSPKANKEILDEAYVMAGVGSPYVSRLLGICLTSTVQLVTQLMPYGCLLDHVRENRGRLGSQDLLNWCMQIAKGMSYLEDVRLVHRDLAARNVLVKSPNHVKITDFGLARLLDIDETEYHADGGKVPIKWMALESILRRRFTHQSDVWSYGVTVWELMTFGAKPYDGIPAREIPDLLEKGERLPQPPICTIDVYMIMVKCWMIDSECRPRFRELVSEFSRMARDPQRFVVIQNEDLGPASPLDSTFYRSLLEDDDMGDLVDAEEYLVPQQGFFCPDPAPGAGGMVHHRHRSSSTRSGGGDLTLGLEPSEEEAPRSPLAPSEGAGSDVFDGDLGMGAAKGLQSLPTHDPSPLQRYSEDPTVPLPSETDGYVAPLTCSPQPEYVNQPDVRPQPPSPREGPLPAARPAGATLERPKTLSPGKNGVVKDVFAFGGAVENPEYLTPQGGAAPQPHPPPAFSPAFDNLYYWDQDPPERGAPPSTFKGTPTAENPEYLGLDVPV
- test.details: Ba/F3 cell viability (Cell Titer Glo), HER2 exon 20 insertions
- Format: cell-based
- cond: read-out: IC50, Ave HER2 exon 20 insertions (N = 6 cell lines); Ba/F3, 72 hours, average over cell lines
Field: GI50. Provide a value for each of the compounds that follow.
Answers are plain numbers, in nM.

structure.as.smiles	assay.endpoint	measured.result
C=CC(=O)N1CCC[C@@H](n2nc(-c3ccc(Oc4ccccc4)cc3)c3c(N)ncnc32)C1	GI50	114
COc1cc2ncnc(Nc3ccc(F)c(Cl)c3)c2cc1NC(=O)/C=C/CN1CCCCC1	GI50	12.4
C=CC(=O)Nc1cc(Nc2nccc(-c3cn(C)c4ccccc34)n2)c(OC)cc1N(C)CCN(C)C	GI50	444
COc1cc2ncnc(Nc3ccc(F)c(Cl)c3)c2cc1OCCCN1CCOCC1	GI50	12900
Cc1cc(C(=O)Nc2nc3cccc(Cl)c3n2[C@@H]2CCCCN(C(=O)/C=C/CN(C)C)C2)ccn1	GI50	233
C=CC(=O)N1CCC(Oc2cc3c(Nc4ccc(Cl)c(Cl)c4F)ncnc3cc2OC)CC1	GI50	1.9

Now for the compound whose GI50 we want.
-- ask Quick one: GI50 of C=CC(=O)Nc1cccc(Oc2nc(Nc3ccc(N4CCN(C)CC4)cc3)nc3ccsc23)c1 ?
-- reply 352

Source listed as patent US20220143023A1.
